# Tested On: c-Cbl (Homo sapiens (Human))
# Sequence (P22681 47-435): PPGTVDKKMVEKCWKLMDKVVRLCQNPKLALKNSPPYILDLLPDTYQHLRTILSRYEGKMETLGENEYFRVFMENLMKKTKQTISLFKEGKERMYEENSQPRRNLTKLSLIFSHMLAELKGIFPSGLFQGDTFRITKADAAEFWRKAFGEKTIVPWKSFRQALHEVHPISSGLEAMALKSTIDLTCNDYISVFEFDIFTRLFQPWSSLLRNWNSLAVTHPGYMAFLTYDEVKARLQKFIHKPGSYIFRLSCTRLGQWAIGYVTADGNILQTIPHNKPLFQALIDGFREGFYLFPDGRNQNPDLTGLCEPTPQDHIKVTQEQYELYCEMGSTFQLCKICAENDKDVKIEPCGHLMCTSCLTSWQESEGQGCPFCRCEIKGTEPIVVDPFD
Classes based on IC50: class 1 = under 0.02 µM, class 2 = from 0.02 µM up to 0.2 µM, class 3 = 0.2 µM and over

These recorded examples may help you get a feel for the data.
[
  {
    "Molecule": "Cn1cnnc1C(c1cccc(N2Cc3c(cc(CNC4(C)CCC4)cc3C(F)(F)F)C2=O)c1)[C@H]1C[C@H](Cl)C1 (single isomer, unassigned) [Compound 356]",
    "Class Label": "class 2"
  },
  {
    "Molecule": "CC(=O)C1CC([C@@H](c2cccc(N3Cc4c(cc(CNC5(C)CCC5)cc4C(F)(F)F)C3=O)c2)c2nncn2C)C1 (single isomer, unassigned)",
    "Class Label": "class 2"
  },
  {
    "Molecule": "Cn1cnnc1[C@]1(c2cc(NC3CCCC3)cc(N3Cc4c(cc(CNC5(C)CCC5)cc4C(F)(F)F)C3=O)c2)C[C@H](C)C1",
    "Class Label": "class 2"
  },
  {
    "Molecule": "Cn1cnnc1[C@H](c1cccc(N2Cc3c(cc(CNC4(C)CCC4)cc3C(F)(F)F)C2=O)c1)C1CC(OC(F)(F)F)C1 (single isomer, unassigned)",
    "Class Label": "class 2"
  },
  {
    "Molecule": "CC(C)[C@H]1CN(C)CCN1Cc1cc2c(c(C(F)(F)F)c1)CN(c1cccc([C@]3(c4nncn4C)C[C@@H](C#N)C3)c1)C2=O (single isomer, unassigned)",
    "Class Label": "class 2"
  },
  {
    "Molecule": "Cn1cnnc1[C@@H](c1cccc(N2Cc3c(cc(CNC4(C)CCC4)cc3C(F)(F)F)C2=O)c1)C1CC(OC(F)(F)F)C1 (single isomer, unassigned)",
    "Class Label": "class 1"
  },
  {
    "Molecule": "Cn1cnnc1C1(c2cccc(N3Cc4c(cc(CNC5(C)CCC5)cc4C(F)(F)F)C3=O)c2)CC2(CC(=O)C2)C1",
    "Class Label": "class 2"
  },
  {
    "Molecule": "Cn1cnnc1[C@]1(c2cccc(N3Cc4c(cc(CNC5(C)CCC5)cc4C(F)F)C3=O)c2)C[C@H](Cl)C1",
    "Class Label": "class 1"
  },
  {
    "Molecule": "Cn1cnnc1[C@]1(c2cccc(N3Cc4c(cc(CNC5(C)CCC5)cc4C(F)(F)F)C3=O)c2)C[C@@H](OC2CC2)C1",
    "Class Label": "class 2"
  },
  {
    "Molecule": "Cn1cnnc1[C@H](c1cccc(N2Cc3c(cc(CNC4(C)CCC4)cc3C(F)(F)F)C2=O)c1)N1CC(F)(F)C1 (single isomer, unassigned)",
    "Class Label": "class 3"
  }
]

Lab note: sort "Cn1cnnc1[C@@H](C[C@@H]1CCOC1)c1cccc(N2Cc3c(cc(CNC4(C)CCC4)cc3C(F)(F)F)C2=O)c1" into the matching IC50 band. class 3

Dear colleague, I would appreciate it if you could identify the bin for C[C@H](c1cccc(N2Cc3c(cc(CNC4(C)CCC4)cc3C(F)(F)F)C2=O)c1)c1nncn1C (single isomer, unassigned) and reply at your convenience. class 1

Quick check: band for Cn1cnnc1[C@H](c1cccc(N2Cc3c(cc(CNC4(C)CCC4)cc3C(F)(F)F)C2=O)c1)[C@H]1C[C@@H](C#N)C1 (single isomer, unassigned) class 1

Pick a category. Item: "Cn1cnnc1[C@H](c1cccc(N2Cc3c(cc(CNC4(C)CCC4)cc3C(F)(F)F)C2=O)c1)C1CCS(=O)(=O)CC1" class 3

Bin? "Cn1cnnc1[C@]1(c2cccc(N3Cc4c(cc(CNC5(C)CCC5)cc4C(F)(F)F)C3=O)c2)C[C@@H](O)C1" class 3

Sort "CS[C@H]1C[C@](c2cccc(N3Cc4c(cc(CNC5(C)CCC5)cc4C(F)(F)F)C3=O)c2)(c2nncn2C)C1" into one of the categories. class 1

# bin lookup: classify "Cn1cnnc1C1(c2cccc(N3Cc4c(cc(CNC5(C)CCC5)cc4C(F)(F)F)C3=O)c2)CC2(CCC2)C1" by its IC50 class 2

Categorize the following entry: CCOC1CC([C@@H](c2cccc(N3Cc4c(cc(CNC5(C)CCC5)cc4C(F)(F)F)C3=O)c2)c2nncn2C)C1 (single isomer, unassigned) class 2
